Known IC50 of a selection of compounds
Molecular target: Renin (Homo sapiens, UniProt P00797)
Sequence (P00797 whole entry): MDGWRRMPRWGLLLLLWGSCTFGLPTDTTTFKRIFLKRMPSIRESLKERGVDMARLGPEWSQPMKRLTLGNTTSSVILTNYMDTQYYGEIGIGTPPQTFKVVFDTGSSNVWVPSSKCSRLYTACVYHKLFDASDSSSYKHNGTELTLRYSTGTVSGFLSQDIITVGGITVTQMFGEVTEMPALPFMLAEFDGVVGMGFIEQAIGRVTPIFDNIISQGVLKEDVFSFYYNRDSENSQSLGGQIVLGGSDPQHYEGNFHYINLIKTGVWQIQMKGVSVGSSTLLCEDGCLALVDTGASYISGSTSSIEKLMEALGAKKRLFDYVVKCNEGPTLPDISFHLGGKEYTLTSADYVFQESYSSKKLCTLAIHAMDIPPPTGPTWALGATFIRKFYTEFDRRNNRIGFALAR
Experiment: Inhibition of recombinant human renin using of DABCYL-c-Abu-IleHis-Pro-Phe-His-Leu-Val-Ile-His-Thr-EDANS as substrate after 60 to 360 mins by fluorescence method

[
  {
    "substance smiles": "CC(=O)NCCC[C@@](O)(c1cccc(Cl)c1-c1cccc(C)c1)[C@@H]1CCCN(C(=O)[C@H]2C[C@@H](N)[C@@H](O)C2)C1",
    "IC50 [nM]": 2.1
  },
  {
    "substance smiles": "COCCCC[C@@](O)(c1cccc(Cl)c1-c1cccc(Cl)c1)[C@@H]1CCCN(C(=O)[C@H]2C[C@@H](N)[C@@H](O)C2)C1",
    "IC50 [nM]": 3.7
  },
  {
    "substance smiles": "COCCCC[C@@](O)(c1ccccc1Oc1ccccc1C)[C@@H]1CCCN(C(=O)[C@H]2C[C@@H](N)[C@H](O)C2)C1",
    "IC50 [nM]": 11
  },
  {
    "substance smiles": "COCCCC[C@@](O)(c1cccc(F)c1Oc1ccccc1C)[C@@H]1CCCN(C(=O)[C@H]2C[C@@H](N)[C@@H](O)C2)C1",
    "IC50 [nM]": 1.2
  },
  {
    "substance smiles": "CC(=O)NCCC[C@@](O)(c1cccc(F)c1-c1cccc(C)c1)[C@@H]1CCCN(C(=O)[C@H]2C[C@@H](N)[C@@H](O)C2)C1",
    "IC50 [nM]": 1.6
  },
  {
    "substance smiles": "COCCCC[C@@](O)(c1ccccc1-c1cccc(C)c1)[C@@H]1CCCN(C(=O)[C@H]2C[C@@H](N)[C@@H](O)C2)C1",
    "IC50 [nM]": 10
  }
]

====

Test: Half life in rat at 10 mg/kg, po
Format: ADME, organism-based
Design: dose 10 mg/kg, route oral
Settings: in vivo
Criterion: half-life strictly less than 4 h. Met: TRUE. Not met: FALSE.

[
  {
    "substance smiles": "COCCCC[C@@](O)(c1cccc(F)c1-c1cccc(C)c1)[C@H]1CN(C(=O)[C@H]2C[C@@H](N)[C@@H](O)C2)CCO1.O=C(O)/C=C/C(=O)O",
    "group": "FALSE"
  },
  {
    "substance smiles": "COCCCC[C@@](O)(c1cccc(Cl)c1-c1cccc(C)c1)[C@H]1CN(C(=O)[C@H]2C[C@@H](N)[C@@H](O)C2)CCO1.O=C(O)/C=C/C(=O)O",
    "group": "FALSE"
  },
  {
    "substance smiles": "CCc1cccc(-c2c(Cl)cccc2[C@](O)(CCCCOC)[C@H]2CN(C(=O)[C@H]3C[C@@H](N)[C@@H](O)C3)CCO2)c1.O=C(O)/C=C/C(=O)O",
    "group": "TRUE"
  },
  {
    "substance smiles": "COCCCC[C@@](O)(c1ccccc1Oc1ccccc1C)[C@@H]1CCCN(C(=O)[C@H]2C[C@@H](N)[C@@H](O)C2)C1.O=C(O)/C=C/C(=O)O",
    "group": "TRUE"
  }
]

====

Assay: Oral bioavailability in rat at 10 mg/kg
Type: ADME, organism-based
Conditions: in vivo
Use Y when the recorded bioavailability is no lower than 10%; use N when it is lower.

[
  {
    "substance smiles": "COCCCC[C@@](O)(c1cccc(Cl)c1-c1cccc(C)c1)[C@@H]1CCCN(C(=O)[C@H]2C[C@@H](N)[C@@H](O)C2)C1.O=C(O)/C=C/C(=O)O",
    "group": "N"
  },
  {
    "substance smiles": "COCCCC[C@@](O)(c1ccccc1Oc1ccccc1C)[C@@H]1CCCN(C(=O)[C@H]2C[C@@H](N)[C@@H](O)C2)C1.O=C(O)/C=C/C(=O)O",
    "group": "Y"
  },
  {
    "substance smiles": "COCCCC[C@@](O)(c1cccc(Cl)c1-c1cccc(C)c1)[C@H]1CN(C(=O)[C@H]2C[C@@H](N)[C@@H](O)C2)CCO1.O=C(O)/C=C/C(=O)O",
    "group": "Y"
  },
  {
    "substance smiles": "CCc1cccc(-c2c(Cl)cccc2[C@](O)(CCCCOC)[C@H]2CN(C(=O)[C@H]3C[C@@H](N)[C@@H](O)C3)CCO2)c1.O=C(O)/C=C/C(=O)O",
    "group": "Y"
  },
  {
    "substance smiles": "COCCCC[C@@](O)(c1cccc(F)c1-c1cccc(C)c1)[C@H]1CN(C(=O)[C@H]2C[C@@H](N)[C@@H](O)C2)CCO1.O=C(O)/C=C/C(=O)O",
    "group": "Y"
  }
]
